Source of measurements: the supplement of paper PMC10567573

B1: SEC22B (parent)
chain: AKQLFRKLNEQSPTRCTLEAGAMT

# Variants of: B1
# Run Description: protein stability index of a GFP-peptide fusion (GPS, HEK-293T) (PSI 1-6); higher = more stable;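 further: lentivirally expressed fusions sorted by FACS into six bins by GFP to DsRed ratio, PSI derived from sequencing read proportions per bin multiplied by bin number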
# Condition Details: c terminus: a fixed tail appended
Entries are sorted into classes by protein stability index as follows: low bin = under 2, mid bin = from 2 up to 3, high bin = 3 and over

Before answering, review these 5 worked examples.
>>> df
   sequence_change  category_label
0              R6T         mid bin
1             T24Y         mid bin
2              R6W         mid bin
3             T14Q         low bin
4              N9H         low bin

In: # bin label for A22V
Out: low bin

In: Input L8W ; output its category
Out: high bin

In: Which bin, given its protein stability index, does F5Q occupy?
Out: high bin

In: Class (by measured protein stability index) for P13L
Out: mid bin

In: Quick check: band for L18F
Out: mid bin
